Target: T1, LAG-3-hFc protein (human LAG-3 extracellular region with hFc tag) (human, UniProt P18627 23-450)
T1 construct: also called hLAG-3-hFc; LAG-3 protein; not shown: human IgG Fc fragment (hFc) of the pCpC vector
T1 sequence: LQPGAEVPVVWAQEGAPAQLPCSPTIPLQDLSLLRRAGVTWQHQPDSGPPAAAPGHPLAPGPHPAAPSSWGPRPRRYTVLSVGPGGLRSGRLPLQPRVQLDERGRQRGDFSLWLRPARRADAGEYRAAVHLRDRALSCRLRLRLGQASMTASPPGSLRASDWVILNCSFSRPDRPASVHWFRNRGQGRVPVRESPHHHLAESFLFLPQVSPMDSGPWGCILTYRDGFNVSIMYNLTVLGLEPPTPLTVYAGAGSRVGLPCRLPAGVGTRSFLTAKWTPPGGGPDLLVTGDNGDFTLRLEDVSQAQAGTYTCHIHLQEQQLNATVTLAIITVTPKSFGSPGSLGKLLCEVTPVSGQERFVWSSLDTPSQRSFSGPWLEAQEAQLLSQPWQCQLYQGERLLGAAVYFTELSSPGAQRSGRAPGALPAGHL
Experiment: FACS, inhibition of LAG-3-hFc binding to MHC II on Raji cells, antibody 7.407 nM
Attribute: Inhibition rate (%)

binder | Inhibition rate (%)
556F6B8 mouse-human chimeric antibody (antibody, V domains shown, also called mAb123-556F6B8; 556F8B8) VH: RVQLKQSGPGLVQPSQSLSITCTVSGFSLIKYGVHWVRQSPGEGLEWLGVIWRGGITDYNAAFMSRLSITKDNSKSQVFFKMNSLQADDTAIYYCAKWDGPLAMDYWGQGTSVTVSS VL: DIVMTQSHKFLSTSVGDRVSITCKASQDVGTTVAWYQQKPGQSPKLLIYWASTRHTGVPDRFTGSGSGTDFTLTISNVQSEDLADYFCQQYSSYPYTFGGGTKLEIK | 82.7%
409D4E10 mouse-human chimeric antibody (antibody, V domains shown, also called mAb112-409D4E10) VH: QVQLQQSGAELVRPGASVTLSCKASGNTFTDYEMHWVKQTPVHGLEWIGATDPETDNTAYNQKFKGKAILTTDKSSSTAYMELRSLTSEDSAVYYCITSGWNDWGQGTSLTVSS VL: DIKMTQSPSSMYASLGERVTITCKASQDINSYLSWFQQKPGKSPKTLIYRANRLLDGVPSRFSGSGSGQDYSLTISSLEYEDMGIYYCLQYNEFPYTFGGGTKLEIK | 94.7%
105F1E10 mouse-human chimeric antibody (antibody, V domains shown, also called mAb009-105F1E10) VH: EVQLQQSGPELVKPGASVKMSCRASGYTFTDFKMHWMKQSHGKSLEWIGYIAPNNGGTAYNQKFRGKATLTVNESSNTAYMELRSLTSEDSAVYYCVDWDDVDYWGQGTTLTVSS VL: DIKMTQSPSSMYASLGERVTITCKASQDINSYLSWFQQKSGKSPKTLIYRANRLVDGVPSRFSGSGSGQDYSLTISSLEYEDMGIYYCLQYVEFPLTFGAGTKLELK | 67%

Origin of the recorded values: patent US20210155689A1
